- assay-explanation: Solubility test by UV-Vis spectroscopy of saturated solutions
- Type: physicochemical
- protocol-conditions: DMSO, organic solvent or mixture, solvent DMSO; read-out: Solubility DMSO
parameter: solubility (mg/mL)
Write down the numeric answer in mg/mL and omit the unit.

Q) Quick check: solubility of CC(C)(C)c1cc(NC(=O)Nc2ccc(-c3cn4c(n3)sc3cc(OCCN5CCOCC5)ccc34)cc2)no1 [Quizartinib, reference compound] ?
A) 33.2

====

- assay-explanation: Solubility test by UV-Vis spectroscopy of saturated solutions
- Format: physicochemical
- protocol-conditions: solvent DMSO
parameter: Solubility DMSO

Q) Quick check: Solubility DMSO of CC(C)(C)c1cc(NC(=O)Nc2ccc3oc(C(=O)c4cc5c(CN6CCNCC6)c(O)ccc5[nH]4)cc3c2)no1 [Compound 55b, bis(2,2,2-trifluoroacetate)] ?
A) Soluble

Q) Quick check: Solubility DMSO of CC(C)(C)c1cc(NC(=O)Nc2ccc3oc(C(=O)c4cc5c(CN6CCOCC6)c(O)ccc5[nH]4)cc3c2)no1 [Compound 30b, 2,2,2-trifluoroacetate] ?
A) Soluble

Q) Quick check: Solubility DMSO of CN1CCN(Cc2c(O)ccc3[nH]c(C(=O)c4cc5cc(NC(=O)Nc6cc(C(C)(C)C)on6)ccc5o4)cc23)CC1 [Compound 33a] ?
A) Soluble

FYI, the data here is from patent US20260184702A1.
